Target: T1, Her4 on CHO cells (CHO-Her4) (UniProt Q15303 26-1308, limits assumed)
T1 construct: whole, on cells
T1 sequence (Q15303 26-1308 limits assumed): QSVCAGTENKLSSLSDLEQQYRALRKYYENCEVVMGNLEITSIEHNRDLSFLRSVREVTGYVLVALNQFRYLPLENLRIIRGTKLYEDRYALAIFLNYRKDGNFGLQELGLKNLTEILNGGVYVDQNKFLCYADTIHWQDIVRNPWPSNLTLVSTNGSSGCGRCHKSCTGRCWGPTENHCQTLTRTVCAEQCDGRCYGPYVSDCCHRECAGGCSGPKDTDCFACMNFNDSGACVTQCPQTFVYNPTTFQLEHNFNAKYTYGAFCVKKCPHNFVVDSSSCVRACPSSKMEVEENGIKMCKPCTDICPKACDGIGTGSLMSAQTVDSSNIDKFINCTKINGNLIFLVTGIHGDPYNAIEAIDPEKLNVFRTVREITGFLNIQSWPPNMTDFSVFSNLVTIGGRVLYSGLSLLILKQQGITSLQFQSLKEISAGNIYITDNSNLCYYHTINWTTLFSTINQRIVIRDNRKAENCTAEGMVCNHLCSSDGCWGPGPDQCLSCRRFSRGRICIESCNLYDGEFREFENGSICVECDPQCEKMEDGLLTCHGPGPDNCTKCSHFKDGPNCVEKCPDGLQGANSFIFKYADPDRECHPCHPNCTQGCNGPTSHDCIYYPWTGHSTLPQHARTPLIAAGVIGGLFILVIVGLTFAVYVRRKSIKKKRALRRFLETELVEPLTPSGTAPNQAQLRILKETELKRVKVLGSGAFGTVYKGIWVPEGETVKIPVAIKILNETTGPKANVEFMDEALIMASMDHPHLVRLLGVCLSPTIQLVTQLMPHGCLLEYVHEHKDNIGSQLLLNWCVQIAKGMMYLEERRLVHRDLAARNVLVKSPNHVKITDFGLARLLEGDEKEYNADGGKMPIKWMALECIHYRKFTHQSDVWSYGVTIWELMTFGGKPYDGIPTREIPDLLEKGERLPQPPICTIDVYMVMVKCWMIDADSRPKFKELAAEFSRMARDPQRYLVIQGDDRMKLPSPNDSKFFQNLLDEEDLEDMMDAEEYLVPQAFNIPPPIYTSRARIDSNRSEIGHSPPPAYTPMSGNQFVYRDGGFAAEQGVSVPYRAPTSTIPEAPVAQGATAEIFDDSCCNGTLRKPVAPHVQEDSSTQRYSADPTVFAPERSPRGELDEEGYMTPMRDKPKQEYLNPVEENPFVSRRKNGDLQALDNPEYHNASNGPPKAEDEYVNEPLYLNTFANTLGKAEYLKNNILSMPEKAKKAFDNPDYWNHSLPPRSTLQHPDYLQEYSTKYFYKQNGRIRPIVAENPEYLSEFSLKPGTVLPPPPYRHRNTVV
Test: FACS on CHO-Her4 cells, purified IgG, R-PE anti-mouse IgG
Protocol: CHO-Her2, CHO-Her4, CHO-EGFR cells were harvested and resuspended in PBS, 2% FBS at a concentration of approximately 1×10⁶/ml. Cells were stained with purified IgGs at 4° C. for 40 min. Cells were washed with 4 mL PBS, 2% FBS, then centrifuged at 1200 rpm for 10 minutes. Supernatant was removed. Cells were stained with R-PE conjugated anti-mouse IgG at 4° C. for 30 min. […] Cells were analyzed on a FACS Calibur (BD Biosciences) by collecting 20,000 events from gate 1.

| Binder | binding result |
| --- | --- |
| PO-1G2-B6 (antibody, V domains shown, Purified mouse IgG from a hybridoma; also called PO-1G2-B6-HC; PO-1G2-B6-LC) VH: EVQLQQSGPELVKPGASVKISCKASGYSFTGYHIHWMKQSHVESLEWIGRINPYSGVTDYNQNFKDKANLTVDQSSSTAYMELHSLTSEDSAFYYCARTDYYGPWFAYWGQGTLVTVSA VL: DIQMTQSPLSLPVSLGDQASISCRSSPSLVHSNGNTYLHWYLQKPGQSPKLLIYTVSNRFSGVPDRFSGSGSGTDFTLKINRVEAEDLGVYFCSQTTHVPWTFGGGTKLEIKR | no binding |
| 588F41 (antibody, V domains shown, Purified mouse IgG from a hybridoma; also called 588F41-HC; 588F41-LC) VH: EVQLQQSGPELVKPGASVKMSCKASGYTFTSYVMHWVKQKPGQGLEWLGYINPYNDGTKYNEKFKGMATLTSDKSSSTAYMELISLTSEDSAVYYCAREASYGNPFAYWGQGTLVTVSA VL: DIVMTQSPASLSASVGETVTITCRTSENIYSYLAWFQQKQGNSPQLLVYNTKTLAEGVPSRFSGSGSGTQFSLKINSLQPEDFGNYYCQHHYDTPWTFGGGTKLEIKR | no binding |
| 588E14 (antibody, V domains shown, Purified mouse IgG from a hybridoma; also called 588E14-HC; 588E14-LC) VH: EVQLQQSGPELVGPGESVKISCKGSGYAFTDYGMHWVKQSHAKRLEWIGVITIYDGHTNYNQNFKGKAALTVDKSSNTAYLELARMTSEDSAIYYCARGDYDLFWYLDVWGAGTSVTVSS VL: DIVMTQTPLSLTVSLGDQASISCRSSQNIKHSDGNTYLEWYLQKPGQSPKLLIYKVSNRFSGVPDRFSGSGSGTDFTLKISRVEAEDLGVYFCFQGSHVPLTFGAGTKLELKR | no binding |
